# System: LU99 MTAP(-/-)deleted cells
# procedure details: Inhibitory activity on proliferation of LU99 MTAP(-/-)deleted cells (Cell-Titer Glo)
# Format: cell-based
# reported conditions: Homo sapiens, Lu-99, 144 h, incubated 6 d, 0-1,000 nM
Under this convention, MET denotes IC50 strictly below 20 nM and NOT MET denotes IC50 at or above 20 nM.

Is IC50 strictly under 20 nM for the entry CN(C(=O)c1ccc2nc(N)c3cnn(C)c3c2c1)[C@H]1COC(C)(C)c2nc(C(F)(F)F)ccc21 [Example 51] ? MET

Is IC50 strictly under 20 nM for the entry CN(C(=O)c1cc2c3c(c(N)nc2cn1)COC3)C1COC(C)(C)c2cc(-c3ccnn3C)ccc21 (centres unmarked) [Example 9] ? NOT MET

Is IC50 strictly under 20 nM for the entry CN(C(=O)c1ccc2nc(N)c3cnn(C)c3c2c1)C1COC(C)(C)c2cc(C(F)(F)F)ncc21 (centres unmarked) [Example 43] ? MET

---
Is IC50 strictly under 20 nM for the entry CN(C(=O)c1ccc2nc(N)c3cnn(C)c3c2c1)C1COC(C)(C)c2cc(-n3cc(C(F)(F)F)cn3)ccc21 (centres unmarked) [Example 47] ? MET

Is IC50 strictly under 20 nM for the entry CN(C(=O)c1cc2c3c(c(N)nc2cn1)COC3)[C@@H]1COC2(CCC2)c2cc(C(F)(F)F)ccc21 [Example 44] ? MET

Is IC50 strictly under 20 nM for the entry CN(C(=O)c1ccc2nc(N)c3cnn(C)c3c2c1)[C@@H]1COC(C)(C)c2nc(C(F)(F)F)ccc21 [Example 50] ? NOT MET

Is IC50 strictly under 20 nM for the entry CN(C(=O)c1ccc2nc(N)c3cnn(C)c3c2c1)[C@@H]1COC(C)(C)c2cc(N3CCOCC3)ccc21 [Example 33] ? MET
